Test: Metabolic stability test in plasma
Assay type: in vitro ADME, human
Conditions: unchanged form after 10 minutes at 37°C in human plasma, LC/MS; read-out: Remaining rate in human plasma (%/10min)
endpoint.name: remaining at 10 min (%)

Guide cases for remaining at 10 min, answers given:
molecule: COC(=O)c1ccc(OC(=O)CCCc2ccc(NC(=O)c3ccccc3-c3ccc(C(F)(F)F)cc3)c(C(=O)N(C)C)c2)c(C)c1
units: %
observed.value: 67

molecule: CN(C)C(=O)c1cc(CCCC(=O)Oc2ccc(C(=O)OCc3ccncc3)cc2)ccc1NC(=O)c1ccccc1-c1ccc(C(F)(F)F)cc1
units: %
observed.value: 21

molecule: CN(C)C(=O)c1cc(CCCC(=O)Oc2ccc(C(=O)OCCCOCc3ccccc3)cc2)ccc1NC(=O)c1ccccc1-c1ccc(C(F)(F)F)cc1
units: %
observed.value: 50

molecule: CC(C)OC(=O)c1ccc(OC(=O)CCCc2ccc(NC(=O)c3cccnc3-c3ccc(C(F)(F)F)cc3)c(C(=O)N(C)C)c2)cc1
units: %
observed.value: 26

molecule: COC(=O)c1cc(Cl)c(OC(=O)CCCc2ccc(NC(=O)c3ccc(C)nc3-c3ccc(C(F)(F)F)cc3)c(C(=O)N(C)C)c2)c(C(C)C)c1
units: %
observed.value: 77

(P) COC(=O)c1ccc(OC(=O)CCCc2ccc(NC(=O)c3ccccc3-c3ccc(C(F)(F)F)cc3)c(C(=O)N3CCOCC3)c2)cc1
(Q) CN(C)C(=O)COC(=O)c1ccc(OC(=O)CCCc2ccc(NC(=O)c3ccccc3-c3ccc(C(F)(F)F)cc3)c(C(=O)N(C)C)c2)cc1
(R) COC(=O)c1cc(OC)c(OC(=O)CCCc2ccc(NC(=O)c3ccc(C)nc3-c3ccc(C(F)(F)F)cc3)c(C(=O)N(C)C)c2)c(C(=O)OC)c1
Task: Please give the order of these compounds when sorted by remaining at 10 min, largest value leading. Output spec: labels arranged per the requested ranking.
Output: Q, P, R

(a) CCOC(=O)c1ccc(OC(=O)CCCc2ccc(NC(=O)c3ccccc3-c3ccc(C(F)(F)F)cc3)c(C(=O)N(C)C)c2)cc1
(b) CN(C)C(=O)c1cc(CCCC(=O)Oc2ccc(C(=O)OCc3ccccc3)cc2)ccc1NC(=O)c1ccccc1-c1ccc(C(F)(F)F)cc1
(c) COc1cc(C(=O)OCCNC(C)=O)cc(Cl)c1OC(=O)CCCc1ccc(NC(=O)c2ccc(C)nc2-c2ccc(C(F)(F)F)cc2)c(C(=O)N(C)C)c1
Task: Please give the order of these compounds when sorted by remaining at 10 min, largest value leading. Output spec: labels arranged per the requested ranking.
Output: a, b, c
(a: 53%, b: 9%, c: 2%)

(A) CC(=O)N1CCC(OC(=O)c2ccc(OC(=O)CCCc3ccc(NC(=O)c4ccccc4-c4ccc(C(F)(F)F)cc4)c(C(=O)N(C)C)c3)cc2)CC1
(B) CN(C)C(=O)c1cc(CCCC(=O)Oc2ccc(C(=O)O)cc2)ccc1NC(=O)c1ccccc1-c1ccc(C(F)(F)F)cc1
Task: Of A and B , which one carries the higher reported remaining at 10 min? State your choice using its label.
Output: B

(A) CCOC(=O)c1ccc(OC(=O)CCCc2ccc(NC(=O)c3ccc(C)nc3-c3ccc(C(F)(F)F)cc3)c(C(=O)N(C)C)c2)cc1
(B) COC(=O)c1ccc(OC(=O)CCCc2ccc(NC(=O)c3ccccc3-c3ccc(C(F)(F)F)cc3)c(C(=O)N(C)C)c2)c(C(F)(F)F)c1
(C) Cc1noc(-c2ccc(OC(=O)CCCc3ccc(NC(=O)c4ccccc4-c4ccc(C(F)(F)F)cc4)c(C(=O)N(C)C)c3)cc2)n1
(D) CCOC(=O)c1cc(C)c(OC(=O)CCCc2ccc(NC(=O)c3ccc(C)nc3-c3ccc(C(F)(F)F)cc3)c(C(=O)N(C)C)c2)c(C(=O)OC)c1
(E) CN(C)C(=O)Cn1nnc(-c2ccc(OC(=O)CCCc3ccc(NC(=O)c4ccccc4-c4ccc(C(F)(F)F)cc4)c(C(=O)N(C)C)c3)cc2)n1
Task: Please give the order of these compounds when sorted by remaining at 10 min, largest value leading. Output spec: labels arranged per the requested ranking.
Output: E, A, C, D, B
(E: 84%, A: 53%, C: 20%, D: 12%, B: 0%)

###

Assay: Stability test in buffer (pH 7.4)
Assay type: physicochemical
Conditions: phosphate buffer/acetonitrile 7:3; 60 minutes at 37°C, 100 mM potassium phosphate buffer (pH 7.4) and acetonitrile 7:3 (v/v), LC/MS; read-out: Buf. remaining rate (%/60min)
Protocol: In the tables, Buf. remaining rate was determined by stability test in buffer (pH 7.4) as described below. A sample dissolved in DMSO was mixed with a mixed solution of 100 mM potassium phosphate buffer and acetonitrile in the ratio of 7:3 (v/v). […] The solution was centrifuged, and the concentration of the sample (unchanged form) in the supernatant was determined by high performance liquid chromatography/mass spectrometry (LC/MS). […]
endpoint.name: remaining at 1 h (%)

molecule: CN(C)C(=O)c1cc(CCCC(=O)Oc2ccc(C(=O)OCc3ccccc3)cc2)ccc1NC(=O)c1ccccc1-c1ccc(C(F)(F)F)cc1
remaining at 1 h, %: 95
--
molecule: CC(=O)NCCOC(=O)c1ccc(OC(=O)CCCc2ccc(NC(=O)c3ccccc3-c3ccc(C(F)(F)F)cc3)c(C(=O)N(C)C)c2)cc1
remaining at 1 h, %: 100
--
molecule: COC(=O)c1ccc(OC(=O)CCCc2ccc(NC(=O)c3ccccc3-c3ccc(C(F)(F)F)cc3)c(C(=O)N(C)C)c2)c(C)c1
remaining at 1 h, %: 103
--
molecule: CN(C)C(=O)c1cc(CCCC(=O)Oc2ccc(C#N)cc2)ccc1NC(=O)c1ccccc1-c1ccc(C(F)(F)F)cc1
remaining at 1 h, %: 99
--
molecule: COC(=O)c1ccc(OC(=O)CCCc2ccc(NC(=O)c3ccccc3-c3ccc(C(=O)OC)cc3)c(C(=O)N(C)C)c2)cc1
remaining at 1 h, %: 102
--
molecule: CN(C)C(=O)c1cc(CCCC(=O)Oc2ccc(C(=O)OCCCO)cc2)ccc1NC(=O)c1ccccc1-c1ccc(C(F)(F)F)cc1
remaining at 1 h, %: 107

###

Assay: Stability test in buffer (pH 7.4)
Format: physicochemical
Conditions: phosphate buffer/acetonitrile 7:3; 10 minutes at 37°C, 100 mM potassium phosphate buffer (pH 7.4) and acetonitrile 7:3 (v/v), LC/MS; read-out: Buf. remaining rate (%/10min)
endpoint.name: remaining at 10 min (%)

compound: Cc1cccc(COC(=O)c2ccc(OC(=O)CCCc3ccc(NC(=O)c4ccc(C)nc4-c4ccc(C(F)(F)F)cc4)c(C(=O)N(C)C)c3)cc2)n1
observed.value: 102
--
compound: CCOC(=O)c1ccc(OC(=O)CCCc2ccc(NC(=O)c3ccccc3-c3ccc(C(F)(F)F)cc3)c(C(=O)N(C)C)c2)cc1
observed.value: 102
--
compound: CC(C)OC(=O)COC(=O)c1ccc(OC(=O)CCCc2ccc(NC(=O)c3ccccc3-c3ccc(C(F)(F)F)cc3)c(C(=O)N(C)C)c2)cc1
observed.value: 98
--
compound: CN(C)C(=O)c1cc(CCCC(=O)Oc2ccc(C(=O)OCc3cccnc3)cc2)ccc1NC(=O)c1ccccc1-c1ccc(C(F)(F)F)cc1
observed.value: 99
--
compound: COC(=O)COC(=O)c1ccc(OC(=O)CCCc2ccc(NC(=O)c3ccccc3-c3ccc(C(F)(F)F)cc3)c(C(=O)N(C)C)c2)cc1
observed.value: 99
--
compound: CC(C)n1nnc(-c2ccc(OC(=O)CCCc3ccc(NC(=O)c4ccccc4-c4ccc(C(F)(F)F)cc4)c(C(=O)N(C)C)c3)cc2)n1
observed.value: 98
--
compound: COC(=O)c1ccc(OC(=O)CCc2ccc(NC(=O)c3ccccc3-c3ccc(C(F)(F)F)cc3)c(C(=O)N(C)C)c2)cc1
observed.value: 97
--
compound: CN(C)C(=O)c1cc(CCCC(=O)Oc2ccc(C(=O)OC3CCCc4ccccc43)cc2)ccc1NC(=O)c1ccccc1-c1ccc(C(F)(F)F)cc1 (stereo not drawn)
observed.value: 98
--
compound: COC(=O)c1ccc(OC(=O)CCCc2ccc(NC(=O)c3ccccc3-c3ccc(C(F)(F)F)cc3)c(C(=O)N(C)C)c2)cc1C
observed.value: 101
--
compound: COc1cc(C(=O)OC(C)C)cc(OC)c1OC(=O)CCCc1ccc(NC(=O)c2ccc(C)nc2-c2ccc(C(F)(F)F)cc2)c(C(=O)N(C)C)c1
observed.value: 99
--
compound: CC(=O)NCCOC(=O)c1ccc(OC(=O)CCCc2ccc(NC(=O)c3ccccc3-c3ccc(C(F)(F)F)cc3)c(C(=O)N(C)C)c2)cc1
observed.value: 99
--
compound: CN(C)C(=O)c1cc(CCCC(=O)Oc2ccc(C(=O)OCc3ccsc3)cc2)ccc1NC(=O)c1ccccc1-c1ccc(C(F)(F)F)cc1
observed.value: 98
--
compound: COC(=O)c1ccc(OC(=O)CN(C)Cc2ccc(NC(=O)c3ccccc3-c3ccc(C(F)(F)F)cc3)c(C(=O)N(C)C)c2)cc1
observed.value: 95
--
compound: CCOc1cc(C(=O)OC)cc(OC)c1OC(=O)CCCc1ccc(NC(=O)c2ccc(C)nc2-c2ccc(C(F)(F)F)cc2)c(C(=O)N(C)C)c1
observed.value: 100
--
compound: COC(=O)c1ccc(OC(=O)CCCc2ccc(NC(=O)c3ccccc3-c3ccc(C(F)(F)F)cc3)c(C(=O)N(C)C)c2)cc1Cl
observed.value: 101
--
compound: CC(OC(=O)c1ccc(OC(=O)CCCc2ccc(NC(=O)c3ccccc3-c3ccc(C(F)(F)F)cc3)c(C(=O)N(C)C)c2)cc1)c1ccccc1 (stereo not drawn)
observed.value: 98
--
compound: CN(C)C(=O)Cn1nnc(-c2ccc(OC(=O)CCCc3ccc(NC(=O)c4ccccc4-c4ccc(C(F)(F)F)cc4)c(C(=O)N(C)C)c3)cc2)n1
observed.value: 101
--
compound: CCc1cc(C(=O)OC)cc(Cl)c1OC(=O)CCCc1ccc(NC(=O)c2ccc(C)nc2-c2ccc(C(F)(F)F)cc2)c(C(=O)N(C)C)c1
observed.value: 101
--
compound: COC(=O)c1ccc(OC(=O)CCCc2ccc(NC(=O)c3ccc(C)nc3-c3ccc(C(F)(F)F)cc3)c(C(=O)N(C)C)c2)cn1
observed.value: 100
--
compound: Cc1noc(-c2ccc(OC(=O)CCCc3ccc(NC(=O)c4ccccc4-c4ccc(C(F)(F)F)cc4)c(C(=O)N(C)C)c3)cc2)n1
observed.value: 98
--
compound: COC(=O)c1ccc(OC(=O)CCCc2ccc(NC(=O)c3ccccc3-c3ccc(C(F)(F)F)cc3)c(C(=O)N(C)C)c2)c(F)c1
observed.value: 101
--
compound: CN(C)C(=O)c1cc(CCCC(=O)Oc2ccc(C(=O)OCCCO)cc2)ccc1NC(=O)c1ccccc1-c1ccc(C(F)(F)F)cc1
observed.value: 102
--
compound: CN(C)C(=O)c1cc(CCCC(=O)Oc2ccc(-c3nnn(CC(=O)OCc4ccccc4)n3)cc2)ccc1NC(=O)c1ccccc1-c1ccc(C(F)(F)F)cc1
observed.value: 101
--
compound: COC(=O)c1ccc(OC(=O)CCCc2ccc(NC(=O)c3ccccc3-c3ccc(C(=O)OC)cc3)c(C(=O)N(C)C)c2)cc1
observed.value: 101
